# Assayed system: T1, cSNK:BSA conjugate (bovine, head-to-tail cyclized; conjugated to BSA carrier)
# T1 construct: also called BSA-cSNK
# T1 sequence (P02769 25-607 limits assumed): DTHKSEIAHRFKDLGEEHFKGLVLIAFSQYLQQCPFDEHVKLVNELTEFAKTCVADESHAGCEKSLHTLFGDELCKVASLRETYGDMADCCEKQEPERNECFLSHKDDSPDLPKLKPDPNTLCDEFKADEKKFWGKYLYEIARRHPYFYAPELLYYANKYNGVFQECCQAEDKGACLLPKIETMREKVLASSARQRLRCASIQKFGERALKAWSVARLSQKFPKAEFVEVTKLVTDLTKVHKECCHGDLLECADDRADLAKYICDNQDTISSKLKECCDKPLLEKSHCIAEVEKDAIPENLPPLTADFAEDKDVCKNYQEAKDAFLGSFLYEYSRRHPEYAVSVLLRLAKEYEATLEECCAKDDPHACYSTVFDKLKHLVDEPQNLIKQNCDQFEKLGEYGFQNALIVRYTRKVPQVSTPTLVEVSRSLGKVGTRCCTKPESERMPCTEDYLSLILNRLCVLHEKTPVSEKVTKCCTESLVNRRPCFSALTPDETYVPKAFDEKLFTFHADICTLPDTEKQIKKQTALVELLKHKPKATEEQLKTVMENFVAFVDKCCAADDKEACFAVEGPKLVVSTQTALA
# Protocol description: BLI (Octet), KD2
// values below are reported Kd
Unit nM implied. Number only.

Recorded results for 4 binders are shown here.
| Binder | Val |
| --- | --- |
| 5E3HCDR1-S184D (antibody, V domains shown, hu5E3 IgG1 vector mutant; also called 5E3-S184D-AFF) VH: QVQLQQSGPEVKKPGASVKISCKASGYIFTDYYIQWVIHAPGQGLEWIGWIYPGNVNTKYNEKFKGKATLTADKSSSTAYMELSSLTSEDTAVYFCARMDYEAHYWGQGTTVTVSS VL: DIQMTQSPSSLSASVGDRVTITCRASQEISGYLTWLQQKPEGAIKRLIYAASTLDSGVPKRFSGSRSGSDYSLTISSLQPEDFATYNCLQYANYPRTFGGGTKLEIK | 3.41 |
| 5E3KCDR3-N93Q (antibody, IgG1, V domains shown, hu5E3 IgG1 vector mutant) VH: QVQLQQSGPEVKKPGASVKISCKASGYIFTSYYIQWVIHAPGQGLEWIGWIYPGNVNTKYNEKFKGKATLTADKSSSTAYMELSSLTSEDTAVYFCARMDYEAHYWGQGTTVTVSS VL: DIQMTQSPSSLSASVGDRVTITCRASQEISGYLTWLQQKPEGAIKRLIYAASTLDSGVPKRFSGSRSGSDYSLTISSLQPEDFATYNCLQYAQYPRTFGGGTKLEIK | 0.76 |
| 5E3HCDR3-Y208F (antibody, IgG1, V domains shown, hu5E3 IgG1 vector mutant) VH: QVQLQQSGPEVKKPGASVKISCKASGYIFTSYYIQWVIHAPGQGLEWIGWIYPGNVNTKYNEKFKGKATLTADKSSSTAYMELSSLTSEDTAVYFCARMDFEAHYWGQGTTVTVSS VL: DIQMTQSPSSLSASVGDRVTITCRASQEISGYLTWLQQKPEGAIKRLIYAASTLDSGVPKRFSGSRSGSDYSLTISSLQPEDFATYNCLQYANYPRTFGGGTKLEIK | 0.001 |
| 5E3HCDR2-K212D (antibody, IgG1, V domains shown, hu5E3 IgG1 vector mutant; also called 5E3-K212D-AFF) VH: QVQLQQSGPEVKKPGASVKISCKASGYIFTSYYIQWVIHAPGQGLEWIGWIYPGNVNTDYNEKFKGKATLTADKSSSTAYMELSSLTSEDTAVYFCARMDYEAHYWGQGTTVTVSS VL: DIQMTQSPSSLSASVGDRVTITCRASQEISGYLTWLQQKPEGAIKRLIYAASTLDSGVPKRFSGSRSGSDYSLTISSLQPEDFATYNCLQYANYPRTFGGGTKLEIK | 2.36 |

Now look at this one.
Query: Kd lookup needed for 5E3KCDR2-S80Y (antibody, IgG1, V domains shown, hu5E3 IgG1 vector mutant) VH: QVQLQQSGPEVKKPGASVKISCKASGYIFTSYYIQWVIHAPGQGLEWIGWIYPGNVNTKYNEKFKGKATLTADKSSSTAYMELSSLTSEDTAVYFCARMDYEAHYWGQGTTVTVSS VL: DIQMTQSPSSLSASVGDRVTITCRASQEISGYLTWLQQKPEGAIKRLIYAASTLDYGVPKRFSGSRSGSDYSLTISSLQPEDFATYNCLQYANYPRTFGGGTKLEIK , thanks.
Response: 3.05
